Assign Relative current amplitude (h)α9α10 to each entry below.
Target: human (h) α9α10 nAChR (Homo sapiens, UniProt Q9GZZ6+Q9UGM1)
Construct: host or cells: Xenopus laevis oocytes, cRNA injected
Sequence (Q9UGM1 26-479 limits assumed): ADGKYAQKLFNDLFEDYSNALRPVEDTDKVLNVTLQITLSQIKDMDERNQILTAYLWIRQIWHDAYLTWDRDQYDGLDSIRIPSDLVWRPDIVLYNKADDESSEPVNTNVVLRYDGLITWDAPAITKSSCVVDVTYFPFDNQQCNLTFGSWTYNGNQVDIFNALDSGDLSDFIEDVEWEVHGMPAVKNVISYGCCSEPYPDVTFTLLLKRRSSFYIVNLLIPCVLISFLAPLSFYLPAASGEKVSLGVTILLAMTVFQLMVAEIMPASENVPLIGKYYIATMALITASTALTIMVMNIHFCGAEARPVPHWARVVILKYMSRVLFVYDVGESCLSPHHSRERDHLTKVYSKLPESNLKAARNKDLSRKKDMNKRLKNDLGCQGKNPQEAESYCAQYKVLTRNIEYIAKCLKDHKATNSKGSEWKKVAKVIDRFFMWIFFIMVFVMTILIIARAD
Sequence (Q9GZZ6 25-450): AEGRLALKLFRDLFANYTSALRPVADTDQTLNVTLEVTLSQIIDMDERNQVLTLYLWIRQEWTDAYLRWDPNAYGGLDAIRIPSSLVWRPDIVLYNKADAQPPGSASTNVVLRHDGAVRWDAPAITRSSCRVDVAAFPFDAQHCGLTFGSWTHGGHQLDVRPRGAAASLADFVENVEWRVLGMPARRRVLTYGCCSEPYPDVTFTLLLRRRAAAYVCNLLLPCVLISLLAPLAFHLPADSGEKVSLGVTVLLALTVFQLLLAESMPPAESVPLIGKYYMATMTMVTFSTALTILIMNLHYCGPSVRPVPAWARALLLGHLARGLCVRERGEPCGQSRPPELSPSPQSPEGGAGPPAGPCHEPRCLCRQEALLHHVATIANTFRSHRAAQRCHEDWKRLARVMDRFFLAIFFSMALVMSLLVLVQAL
Experiment: Two-electrode voltage clamp, inhibition of ACh-evoked currents at hα9α10 nAChR in Xenopus oocytes
Format: cell-based
Conditions: compound 100 µM; currents activated by 6 μM ACh; ratio ACh + compound to ACh alone; mean ± SD, n = 6–11
Square brackets hold non-standard residues; d marks the D form. Peptide text beside a SMILES is read from it. Tpi = O=C(O)[C@@H]1Cc2c([nH]c3ccccc23)CN1
Keep it simple and answer with nothing but the number.

// fetch Relative current amplitude (h)α9α10 given entry COC(=O)[C@@H](Cc1ccccc1)NC(=O)[C@@H](NC(=O)[C@H](NC(=O)[C@@H](N)Cc1c[nH]c2ccccc12)C(C)C)C(C)C [Compound 2, psegynamide B] (H-W[dV]V[dF]-OMe)
0.075

// fetch Relative current amplitude (h)α9α10 given entry COC(=O)[C@@H](Cc1ccccc1)NC(=O)[C@@H](NC(=O)[C@H](NC(=O)[C@@H]1Cc2c([nH]c3ccccc23)CN1)C(C)C)C(C)C [Compound 5, psegynamide E]
0.374

// fetch Relative current amplitude (h)α9α10 given entry COC(=O)[C@@H](Cc1ccc(O)cc1)NC(=O)[C@@H](NC(=O)[C@H](NC(=O)[C@@H]1Cc2c([nH]c3ccccc23)CN1)C(C)C)C(C)C [Compound 6, psegynamide F] (H-[Tpi][dV]V[dY]-OMe)
0.760

// fetch Relative current amplitude (h)α9α10 given entry CC(C)[C@H](NC(=O)[C@H](NC(=O)[C@@H]1Cc2c([nH]c3ccccc23)CN1)C(C)C)C(=O)N[C@H](Cc1ccccc1)C(=O)O [Compound 4, psegynamide D]
0.824

// fetch Relative current amplitude (h)α9α10 given entry CC(C)C(NC(=O)C(N)Cc1c[nH]c2ccccc12)C(=O)NC(C(=O)NC(Cc1ccccc1)C(=O)O)C(C)C (stereo not drawn) [Compound 1, psegynamide A] (H-WVVF-OH; configuration not given here)
0.103

// fetch Relative current amplitude (h)α9α10 given entry CC(C)[C@H](NC(=O)[C@H](NC(=O)[C@@H](N)Cc1c[nH]c2ccccc12)C(C)C)C(=O)N[C@H](Cc1ccc(O)cc1)C(=O)O [Compound 3, psegynamide C] (H-W[dV]V[dY]-OH)
0.509
